# ASSAY PROTOCOL: yeast display, Sf9 membrane polyspecificity reagent, FACS + sequencing; frameworks hold sequencing errors
MEASUREMENT NAME: polyreactivity (PSR sort gate)

The following sequences have reported results that may help.
SEQUENCE TEXT | MEASUREMENT NAME | MEASURED VALUE
QVQLVESGGGLVQAGGSLRLSCAASGRTFFYNAMGWYRQAPGKERELVAAISKNGGNTYYADSVKGRFTISRDNAKNTVYLQMNSLKPEDTAVYYCAARQSRTGPDRNDYWGQGTQVTVSS | polyreactivity (PSR sort gate) | high polyreactivity
QVQLVESGGGLVQAGGSLRLSCAASGFTFGSNTMGWYRQAPGKERELVAAITTSGDSTYYADSVKGRFTISRDHAKNTVYLQMNSLKPEDTAVYYCAAERRYGRYYRLVRLLGQGTQVTVSS | polyreactivity (PSR sort gate) | high polyreactivity
QVQLVESGGGLVQAGGSLRLSCAASGSTFQYYAMGWYRQAPGKERELVAAISYSSGTTYYADSVKGRFTISRDNAKNTVYLQMNSLKPEDTAVYYCARPARYSYPTSTAFDYWGQGTQVTVSS | polyreactivity (PSR sort gate) | low polyreactivity
QVQLVESGGGLVQAGGSLRLICAASGRIFYINAMGWYRQPPGKERELVAAITGGDGSTTYADSVKGRFTISRDNAKNTVYLQMNSLKPEDTAVYYCYADTARKYAESQFDHWGQGTQVTVSS | polyreactivity (PSR sort gate) | low polyreactivity
QVQLVESGGGLVQAGGSLRLSCSASGSTFERYAMGWYRQAPGKERELVAAISAIGDSTYYADSVKGRFTISRDNANNTVYLQMNSLKPEDTAVYYCAAKTSDYGYYYWGQGTQVTVSS | polyreactivity (PSR sort gate) | high polyreactivity
QVQLVESGGGLVQAGGSLRLSCAASGSTFGYYAMGWYRQAPGKEREFVAAITSDGSSTYYADSVKGRFTISRDNAKNTVYLQMNSMKREDTAVYYCAADTFTYGGYKFYIFYWGQGTQVTVSS | polyreactivity (PSR sort gate) | high polyreactivity
QVQLVESGGGLVQAGGSLRLSCAASGRTFRYYAMGWYRQAPGKERELVAAITGSGGSTYYADSVKGRFTISRDNAKNTVYLQMHSLKPEDTAVYYCNTYLSRWSGERDYWGQGTQVTVSS | polyreactivity (PSR sort gate) | high polyreactivity

Then there is this sequence:
[Q] Consider the sequence shown here: QVQLVESRGGLVQAGGSLRLSCPASGYIFYRNAMGWYRQEPGKERELVAAITYTGGRTYYPDSVKGRFTISRDNAKNTVYLQMNSLNPEDTAVYYCNADGRVFVVRPYYDYEYWGQGTQVTVSS What is its recorded polyreactivity (PSR sort gate)?
[A] low polyreactivity
